src = patent US20080267971A1

Catalogue of % of binding to human Ang-2 readings, one per entry.
- target of assay: T1, Human Ang-1/2 BsmI chimeric molecule (human)
- T1 chain: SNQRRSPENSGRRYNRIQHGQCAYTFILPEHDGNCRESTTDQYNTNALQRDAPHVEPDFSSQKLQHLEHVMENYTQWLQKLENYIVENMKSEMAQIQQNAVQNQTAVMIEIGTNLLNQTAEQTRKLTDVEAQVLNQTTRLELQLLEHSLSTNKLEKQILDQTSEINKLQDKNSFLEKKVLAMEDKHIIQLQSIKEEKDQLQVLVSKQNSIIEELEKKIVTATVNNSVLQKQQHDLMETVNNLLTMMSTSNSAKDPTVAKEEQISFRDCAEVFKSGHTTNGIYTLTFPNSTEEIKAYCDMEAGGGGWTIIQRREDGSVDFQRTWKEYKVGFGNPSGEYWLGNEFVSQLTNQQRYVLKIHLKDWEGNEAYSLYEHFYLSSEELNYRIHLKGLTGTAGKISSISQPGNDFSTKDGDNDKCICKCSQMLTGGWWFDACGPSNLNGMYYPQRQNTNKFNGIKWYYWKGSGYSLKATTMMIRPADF
- assay protocol: ELISA
observable: % of binding to human Ang-2 (%)

binder="mAb 5.62.1 (antibody, V domains shown, Human hybridoma IgG (XenoMouse); also called x5.62) VH: EVQLVESGGGLVQPGGSLRLSCAASGFTFSSYWMSWVRQAPGKGLEWVANIKQDGSEKYYVDSVKGRFTISRDNAKNSLYLQMNSLRAEDTAVYYCARDPGIAVAGPFDYWGQGTLVTVSS VL: EIVMTQSPATLSVSPGERATLSCRASQSVSSNLAWYQQKPGQAPRLLIYGAFTRATGIPARFSGSGSGTEFTLTISSLQSEDFAVYYCQQYNHWWTFGQGTKVGIKR" observable="% of binding to human Ang-2" observed_measurement=100
binder="mAb 5.52.1 (antibody, V domains shown, Human hybridoma IgG (XenoMouse); the line 5.52 has entries of its own (347, 349; light chain L2) that differ from the clone 5.52.1 (L5); also called x5.52) VH: QVQLVESGGGVVQPGRSLRLSCAASGFTFSSYGMHWVRQAPGKGLEWVAVRWYDESNKYYADSVKGRFTISRDNSKNTLYLQMNSLRAEDTAVYYCARDPFETGTTFDYWGQGTLVTVSS VL: DIQMTQSPSSVSASVGDRVTITCRASQGISSWLAWYQQKPGKAPKLLIYAVSSLESGVPSRFSGSGSGTDFTLTISSLQPEDFATYYCQQALTFGGGTKVEIKR" observable="% of binding to human Ang-2" observed_measurement=100
binder="mAb 6.3.1 (antibody, V domains shown, Human hybridoma IgG (XenoMouse); also called x6.3) VH: QVQLVQSGAEVKKPGASVKVSCKASGYTFTGYFMHWVPQAPGQGLEWMGWINPNSGGTNYAQNFQGRVTMTRDTSISTAYMELSRLRSDDTPVYYCARDPWQNWNSYFDYWGQGTLVTVSS VL: DIQMTQSPSSLSASVGDRVTITCRASQSIRSYLNWYQQKPGKAPKVLIYAASSLQSGVPSRFSGSGSGTDFTLTISSLQPEDFATYYCQQSYSTLCSFGQGTKLEIKR" observable="% of binding to human Ang-2" observed_measurement=100
